Assay: Plasma pharmacokinetics of G–A after a single oral dose in ICR mice (HPLC, PKSolver)
Assay type: in vivo
Settings: ICR, mouse, plasma, po, 200 mg/kg, plasma, one-compartment model, oral 200 mg/kg, read-out: MRT (mean residence time) (converted)
Experimental Readout: MRT (h)

Compound	Experimental Readout	Unit Abbreviation	Quantitative Result
COC(=O)[C@@]12CC[C@]3(C)C([C@H](O)[C@H](O)[C@@]4([C@@H](C)O)COC(=O)C=C[C@H]43)[C@@]1(C)CC[C@@]1(C)CC=C(C)C[C@]12O (stereo partly shown)	MRT	h	10.5

---

Assay: Brain tissue pharmacokinetics of G–A after a single oral dose in ICR mice (HPLC, PKSolver)
Type: in vivo
Settings: mouse, brain, 720 min after single oral 200 mg/kg, mean ± S.E.M., n = 8

Compound	concentration at 720 min, ng/mL
COC(=O)[C@@]12CC[C@]3(C)C([C@H](O)[C@H](O)[C@@]4([C@@H](C)O)COC(=O)C=C[C@H]43)[C@@]1(C)CC[C@@]1(C)CC=C(C)C[C@]12O (stereo partly shown)	550
